Listing: growth at 0.01 µM of selected molecules
- System: NCI-H226
- test-name: Cytotoxicity against human NCI-H226 cells assessed as cell growth at 0.01 uM after 48 hrs by sulforhodamine B assay relative to control
- Assay type: functional
- protocol-conditions: NCI-H226, 48 h, read-out: Activity
Give the value in % but do not write % after it.

Looking up COc1cc(-c2cc(/C=C/C(=O)c3ccc(Cl)c(Cl)c3)[nH]n2)cc(OC)c1OC , I see its growth at 0.01 µM listed as 103

---

- System: SK-MEL-28
- test-name: Cytotoxicity against human SK-MEL-28 cells assessed as growth inhibition after 48 hrs by sulforhodamine B assay
- Assay type: functional
- protocol-conditions: SK-MEL-28, 48 h
quantity-measured: TGI (µM)
Give the value in µM but do not write µM after it.

Solved entries (count: 4):
Looking up COc1ccc(C(=O)/C=C/c2cc(-c3ccc4c(c3)OCO4)n[nH]2)cc1OC , I see its TGI listed as 19.3

Looking up COc1cc(C(=O)/C=C/c2cc(-c3ccc4c(c3)OCO4)n[nH]2)cc(OC)c1OC , I see its TGI listed as 4.18

Looking up COc1ccc(-c2cc(/C=C/C(=O)c3cc(OC)c(OC)c(OC)c3)[nH]n2)cc1OC , I see its TGI listed as 4.41

Looking up COc1ccc(C(=O)/C=C/c2cc(-c3cc(OC)c(OC)c(OC)c3)n[nH]2)cc1OC , I see its TGI listed as 3.34

// switching to the query molecule
Looking up COc1cc(-c2cc(/C=C/C(=O)c3ccc4c(c3)OCO4)[nH]n2)cc(OC)c1OC , I see its TGI listed as 7.34
